Taken from ChEMBL document CHEMBL1145998.

Can you tell me log10(Kd) for the items I'm about to list?
# Target Of Assay: Mitogen-activated protein kinase 14 (Homo sapiens)
# Procedure Summary: Dissociation constant at Tm against human Mitogen-activated protein kinase p38 alpha (fluorescence exchange curve)
Would you kindly interpret these values as log10 of Kd expressed in nM?

Ask | Could you please provide reported log10(Kd) for CC(C)(C)c1cc(NC(=O)Nc2ccc(OCCN3CCOCC3)c3ccccc23)n(-c2ccccc2)n1 ? Thanks!
Reply | -1.05

Ask | Could you please provide reported log10(Kd) for Cc1ccc(-n2nc(C(C)(C)C)cc2NC(=O)Nc2ccccc2)cc1 ? Thanks!
Reply | 1.32

Ask | Could you please provide reported log10(Kd) for Cc1ccc(-n2nc(C(C)(C)C)cc2NC(=O)Nc2cccc3ccccc23)cc1 ? Thanks!
Reply | 0.00

Ask | Could you please provide reported log10(Kd) for CC(C)c1cc(NC(=O)Nc2ccc(OCCN3CCOCC3)c3ccccc23)n(-c2ccccc2)n1 ? Thanks!
Reply | 0.78

Ask | Could you please provide reported log10(Kd) for CC(C)(CO)c1cc(NC(=O)Nc2ccc(OCCN3CCOCC3)c3ccccc23)n(-c2ccccc2)n1 ? Thanks!
Reply | 1.56

====

# Target Of Assay: Mitogen-activated protein kinase 14 (Homo sapiens, UniProt Q16539)
# Sequence (Q16539 whole entry): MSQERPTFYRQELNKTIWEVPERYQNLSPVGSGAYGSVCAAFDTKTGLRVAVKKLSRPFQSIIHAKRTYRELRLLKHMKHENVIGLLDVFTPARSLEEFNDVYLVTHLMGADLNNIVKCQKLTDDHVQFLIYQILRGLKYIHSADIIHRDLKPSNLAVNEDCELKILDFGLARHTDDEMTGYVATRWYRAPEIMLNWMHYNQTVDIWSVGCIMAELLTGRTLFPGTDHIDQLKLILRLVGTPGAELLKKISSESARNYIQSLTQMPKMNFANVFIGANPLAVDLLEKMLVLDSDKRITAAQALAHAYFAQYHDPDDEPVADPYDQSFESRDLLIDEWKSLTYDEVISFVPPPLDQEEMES
# Procedure Summary: Dissociation constant fit from ITC data against human Mitogen-activated protein kinase p38 alpha (constant fit)
Reported Endpoint: Kd (nM)
Field format: number, assumed nM, no unit text.

Ask | Could you please provide reported Kd for Cn1nc(C(C)(C)C)cc1NC(=O)Nc1ccc(OCCN2CCOCC2)c2ccccc12 ? Thanks!
Reply | 10

Ask | Could you please provide reported Kd for O=C(Nc1ccc(OCCN2CCOCC2)c2ccccc12)Nc1ccnn1-c1ccccc1 ? Thanks!
Reply | 1180

Ask | Could you please provide reported Kd for Cc1ccc(-n2nc(C(C)(C)C)cc2NC(=O)Nc2ccccc2)cc1 ? Thanks!
Reply | 5

Ask | Could you please provide reported Kd for CC(C)(CO)c1cc(NC(=O)Nc2ccc(OCCN3CCOCC3)c3ccccc23)n(-c2ccccc2)n1 ? Thanks!
Reply | 20

====

# Target Of Assay: Mitogen-activated protein kinase 14 (Homo sapiens)
# Procedure Summary: Dissociation constant at Tm against human Mitogen-activated protein kinase p38 alpha
Reported Endpoint: Kd
Number first, unit second: that is the form wanted.

Ask | Could you please provide reported Kd for Cc1ccc(-n2nc(C(C)(C)C)cc2NC(=O)Nc2cccc3ccccc23)cc1 ? Thanks!
Reply | 118 nM

Ask | Could you please provide reported Kd for CC(C)(C)c1cc(NC(=O)Nc2ccc(OCCN3CCOCC3)c3ccccc23)n(-c2ccccc2)n1 ? Thanks!
Reply | 5.3 nM

Ask | Could you please provide reported Kd for Cc1ccc(-n2nc(C(C)(C)C)cc2NC(=O)Nc2ccccc2)cc1 ? Thanks!
Reply | 177 nM

Ask | Could you please provide reported Kd for CC(C)c1cc(NC(=O)Nc2ccc(OCCN3CCOCC3)c3ccccc23)n(-c2ccccc2)n1 ? Thanks!
Reply | 62.8 nM

Ask | Could you please provide reported Kd for CC(C)(CO)c1cc(NC(=O)Nc2ccc(OCCN3CCOCC3)c3ccccc23)n(-c2ccccc2)n1 ? Thanks!
Reply | 493 nM

Ask | Could you please provide reported Kd for O=C(Nc1ccc(OCCN2CCOCC2)c2ccccc12)Nc1ccnn1-c1ccccc1 ? Thanks!
Reply | 6070 nM

Ask | Could you please provide reported Kd for Cn1nc(C(C)(C)C)cc1NC(=O)Nc1ccc(OCCN2CCOCC2)c2ccccc12 ? Thanks!
Reply | 210 nM
